# procedure summary: Binding affinity to r(CUG)4 RNA sequence (unknown origin) assessed as equilibrium dissociation constant by isothermal titration method
pKd: −log10 of the molar value.
measured property: pKd

Reported pKd for `COc1ccc2nc3cc(Cl)ccc3c(NCCCCNc3nc(N)nc(N)n3)c2c1` was 6.40 to 6.52

---

Record form. Attribute: selectivity ratio. Fill in for each entry.
# procedure summary: Selectivity ratio of cytotoxicity of compound to cytotoxicity of NC for human HeLa cells
# Assay type: cell-based
Just the number.

get_value(item= `Nc1nc2nc(n1)NCCCCNc1c3ccccc3nc3c(cccc13)C(=O)NCCCCN2` , readout=selectivity ratio) returns 10

Looking up `Nc1nc2nc(n1)NCCCCCNc1c3ccccc3nc3c(cccc13)C(=O)NCCCCCN2` , I found its selectivity ratio recorded as 10

selectivity ratio in this record for `Nc1nc2nc(n1)NCCCNC(=O)c1cccc3c(c4ccccc4nc13)NCCCCN2` : 10

Reported selectivity ratio for `Nc1nc2nc(n1)NCCCNc1c3ccccc3nc3c(cccc13)C(=O)NCCCN2` was 10

Sure, the documented selectivity ratio for `Nc1nc2nc(n1)NCCCNc1c3ccccc3nc3c(cccc13)C(=O)NCCCCN2` is 10
